Target Or Test System: Delta-type opioid receptor (Homo sapiens)
Run Description: Antagonist activity at human cloned delta opioid receptor expressed in CHO cells assessed as inhibition of DPDPE-stimulated [35S]GTP-gamma-S binding in presence of 10 uM GDP
Format: functional, cell-based
Parameter Measured: Ke (nM)
Give just the number in nM; leave the unit off.

Guide cases for Ke, answers given:
C[C@H]1CN(C/C=C/c2ccccc2)[C@@H]2C[C@@H](NC(=O)C(C)(C)c3ccccc3)C[C@@]1(c1cccc(O)c1)C2 = 0.81
C[C@H]1CN(CCCc2ccccc2)[C@@H]2C[C@@H](NC(=O)C3(c4ccccc4)CCCCCC3)C[C@@]1(c1cccc(O)c1)C2 = 0.26
C[C@H]1CN(CCCc2ccccc2)[C@@H]2C[C@@H](NC(=O)C3(c4ccsc4)CCCC3)C[C@@]1(c1cccc(O)c1)C2 = 0.24

Return value of Ke for input CC1CN(CCCc2ccccc2)[C@@H]2C[C@@H](NC(=O)C3(c4ccccc4)CCCC3)C[C@@]1(c1cccc(O)c1)C2 (single isomer, unassigned; (+)) , no commentary.
0.15

Return value of Ke for input `Cc1ccccc1/C=C/CN1C[C@H](C)[C@@]2(c3cccc(O)c3)C[C@H](NC(=O)C(C)(C)c3ccccc3)C[C@@H]1C2` , no commentary.
0.47

Return value of Ke for input `C[C@H]1CN(CCCc2ccccc2)[C@@H]2C[C@@H](NC(=O)C3(c4ccccc4)CCCCC3)C[C@@]1(c1cccc(O)c1)C2` , no commentary.
0.34

Return value of Ke for input `C[C@@H](C(=O)N[C@@H]1C[C@@H]2C[C@](c3cccc(O)c3)(C1)[C@@H](C)CN2CCCc1ccccc1)c1ccccc1` , no commentary.
0.14

Return value of Ke for input `C[C@H]1CN(CCCc2ccccc2)[C@@H]2C[C@@H](NC(=O)C3(c4cccs4)CCCC3)C[C@@]1(c1cccc(O)c1)C2` , no commentary.
0.31

###

Target Or Test System: Delta-type opioid receptor (Homo sapiens, UniProt P41143)
Sequence (P41143 whole entry): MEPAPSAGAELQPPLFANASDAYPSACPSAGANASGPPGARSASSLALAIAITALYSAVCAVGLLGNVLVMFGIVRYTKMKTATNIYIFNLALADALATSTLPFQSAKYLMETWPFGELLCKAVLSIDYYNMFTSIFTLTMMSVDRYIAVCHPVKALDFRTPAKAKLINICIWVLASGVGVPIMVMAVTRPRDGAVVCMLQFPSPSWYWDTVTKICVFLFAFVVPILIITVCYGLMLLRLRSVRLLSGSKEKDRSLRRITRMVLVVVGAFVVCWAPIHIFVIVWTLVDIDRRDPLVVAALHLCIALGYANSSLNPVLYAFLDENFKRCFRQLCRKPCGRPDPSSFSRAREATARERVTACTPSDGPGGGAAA
Run Description: Inverse agonist activity at human cloned delta opioid receptor expressed in CHO cells assessed as […] [35S]GTP-gamma-S binding in presence of 1 uM GDP
Format: functional, cell-based
Where a SMILES comes first, the peptide text is derived from it. [ ]: non-standard residue; d: D form. The star is where a group is joined. Tyr(Nα,Nα-allyl2) = C=CCN(CC=C)[C@@H](Cc1ccc(O)cc1)C(=O)*; Aib = CC(C)(N)C(=O)O
Parameter Measured: pIC50
As a rule, pIC50 stands for the negative log10 of the concentration, concentration in M.

Guide cases for pIC50, answers given:
C[C@H]1CN(C/C=C/c2ccccc2)[C@@H]2C[C@@H](NC(=O)C(C)(C)c3ccccc3)C[C@@]1(c1cccc(O)c1)C2 = 9.14
C[C@@H](C(=O)N[C@@H]1C[C@@H]2C[C@](c3cccc(O)c3)(C1)[C@@H](C)CN2CCCc1ccccc1)c1ccccc1 = 9.82
CC1CN(CCCc2ccccc2)[C@@H]2C[C@@H](NC(=O)C3(c4ccccc4)CCCC3)C[C@@]1(c1cccc(O)c1)C2 (single isomer, unassigned; (+)) = 8.74
C[C@H]1CN(CCCc2ccccc2)[C@@H]2C[C@@H](NC(=O)C3(c4ccsc4)CCCC3)C[C@@]1(c1cccc(O)c1)C2 = 9.35

With Delta-type opioid receptor (Homo sapiens, UniProt P41143) as the test system, provide measured pIC50 for this compound: C=CCN(CC=C)[C@@H](Cc1ccc(O)cc1)C(=O)NC(C)(C)C(=O)NC(C)(C)C(=O)N[C@@H](Cc1ccccc1)C(=O)N[C@@H](CC(C)C)C(=O)O ({Tyr(Nα,Nα-allyl2)}-[Aib][Aib]FL-OH)
7.08

Cited source for all entries: ChEMBL document CHEMBL1146887
